measurement-target: Bromodomain-containing protein 4 (Homo sapiens, UniProt O60885)
test-method-notes: Displacement of fluorescein-labeled JQ1 from His6/TEV cleavage site fused human BRD4 (residues N44 to E168) expressed in Escherichia coli BL21 (DE3) incubated for 60 min by Fluorescence polarization assay
readout-type: IC50
Returns: string containing the number followed by the unit.

Challenge: Could you tell me which IC50 is on file for `CCN(c1cc(-c2ccc(CCNC(=O)C[C@@H]3N=C(c4ccc(Cl)cc4)c4c(sc(C)c4C)-n4c(C)nnc43)cc2)cc(C(=O)NCc2c(C)cc(C)[nH]c2=O)c1C)C1CCOCC1` ?
Response given: 945 nM

Challenge: Could you tell me which IC50 is on file for `CCN(c1cc(-c2ccc(NC(=O)CCOCCOCCOCCNC(=O)C[C@@H]3N=C(c4ccc(Cl)cc4)c4c(sc(C)c4C)-n4c(C)nnc43)cc2)cc(C(=O)NCc2c(C)cc(C)[nH]c2=O)c1C)C1CCOCC1` ?
Response given: 604 nM

Challenge: Could you tell me which IC50 is on file for `CCN(c1cc(-c2ccc(OCCNC(=O)C[C@@H]3N=C(c4ccc(Cl)cc4)c4c(sc(C)c4C)-n4c(C)nnc43)cc2)cc(C(=O)NCc2c(C)cc(C)[nH]c2=O)c1C)C1CCOCC1` ?
Response given: 1540 nM
